Cited source for all entries: patent US20230129359A1

Give measured pKi for each item. Keep answers brief.
Measurement Target: human M4 receptor (Homo sapiens)
Construct: expressed in transfected cells; host or cells: CHO cells
Experiment Description: Radioligand ([3H]N-methylscopolamine) binding assay, membranes from CHO cells expressing human M4 receptor
Condition Set: Ki against human M4 receptor; membranes from CHO cells; tritiated N-methylscopolamine 1.5 nM; read-out: K
pKi: −log10 of the molar value.

Q) Need pKi, item C[C@@H]1CN(c2cnc(C(F)(F)F)cn2)[C@@H](C)CN1C(=O)NC1CC2(C1)CN(Cc1ccc(Cl)cc1)C2 [Compound 260]
A) 7.00 to 8.00

Q) Need pKi, item C[C@@H]1CN(c2nc3ccc(F)cc3s2)C[C@H](C)N1C(=O)OC1CC2(C1)CN(Cc1ccc(F)cc1)C2 [Compound 381]
A) > 8.00

Q) Need pKi, item C[C@@H]1CN(c2cc(F)c(F)c(F)c2)CCN1C(=O)NC1CC2(C1)CN(Cc1ccccc1)C2 [Compound 44]
A) 7.00 to 8.00

Q) Need pKi, item C[C@@H]1CN(c2cnc3ccccc3n2)C[C@H](C)N1C(=O)NC1CC2(C1)CN(Cc1ccccc1)C2 [Compound 214]
A) 7.00 to 8.00

Q) Need pKi, item C[C@@H]1CN(c2ncc(C(F)(F)F)cn2)[C@@H](C)CN1C(=O)OC1(C)CC2(CN(Cc3ccccc3)C2)C1 [Compound 358]
A) > 8.00

Q) Need pKi, item C[C@@H]1CN(c2cnc(C(F)(F)F)cn2)C[C@H](C)N1C(=O)NC1CC2(C1)CN(Cc1ccc(F)cc1)C2 [Compound 267]
A) 7.00 to 8.00

Q) Need pKi, item C[C@@H]1CN(c2cnc3ccccc3n2)[C@@H](C)CN1C(=O)OC1CC2(C1)CN(Cc1ccccc1)C2 [Compound 187]
A) > 8.00

====

Give measured pKi for each item. Keep answers brief.
Measurement Target: human M4 receptor (Homo sapiens)
Construct: expressed in transfected cells; host or cells: CHO cells
Experiment Description: Radioligand ([3H]N-methylscopolamine) binding assay, membranes from CHO cells expressing human M4 receptor
Condition Set: Ki against human M4 receptor; membranes from CHO cells; tritiated N-methylscopolamine 1.5 nM; read-out: K
pKi: −log10 of the molar value.

Q) Need pKi, item C[C@@H]1CN(c2ncc(C(F)(F)F)cn2)C[C@@H](C)N1C(=O)NC1CC2(C1)CN(Cc1ccc(Cl)cc1)C2
A) 7.00 to 8.00

Q) Need pKi, item COc1cc(N2C[C@@H](C)N(C(=O)OC3CC4(C3)CN(Cc3ccccc3)C4)[C@@H](C)C2)ccc1C#N
A) 6.00 to 7.00

Q) Need pKi, item C[C@@H]1CN(c2ncc(C#N)cn2)C[C@@H](C)N1C(=O)OC1CC2(C1)CN(Cc1ccccc1)C2
A) 6.00 to 7.00

Q) Need pKi, item C[C@@H]1CN(c2ncc(C#N)cn2)C[C@H](C)N1C(=O)NC1CC2(C1)CN(Cc1ccccc1)C2
A) 6.00 to 7.00

====

Measurement Target: human M4 receptor (Homo sapiens, UniProt P08173)
Construct: expressed in transfected cells; host or cells: CHO cells
Sequence (P08173 whole entry): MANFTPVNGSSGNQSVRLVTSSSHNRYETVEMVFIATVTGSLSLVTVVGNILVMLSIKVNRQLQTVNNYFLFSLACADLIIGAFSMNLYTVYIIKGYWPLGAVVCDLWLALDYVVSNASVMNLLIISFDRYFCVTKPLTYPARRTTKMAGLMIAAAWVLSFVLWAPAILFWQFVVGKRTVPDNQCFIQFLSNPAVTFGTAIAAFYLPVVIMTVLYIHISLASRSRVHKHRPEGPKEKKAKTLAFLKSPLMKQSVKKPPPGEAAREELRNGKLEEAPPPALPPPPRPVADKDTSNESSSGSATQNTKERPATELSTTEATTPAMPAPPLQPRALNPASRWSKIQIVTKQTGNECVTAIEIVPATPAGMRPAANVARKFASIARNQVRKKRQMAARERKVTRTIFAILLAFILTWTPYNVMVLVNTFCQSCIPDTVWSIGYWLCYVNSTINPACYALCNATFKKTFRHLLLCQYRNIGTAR
Experiment Description: Radioligand ([3H]N-methylscopolamine) binding assay, membranes from CHO cells expressing human M4 receptor
Method: Binding affinity (Ki) for the compounds was measured by inhibition of radioligand binding to membranes from CHO cells expressing human M4 receptor. Membranes were prepared by nitrogen cavitation and differential centrifugation as previously described (Hoare et al., Mol. Pharmacol. 2003 March; 63(3): 751-65). […] Harvesting and radioactivity counting was conducted as previously described (see, e.g., Hoare et al., Mol. Pharmacol. 2003 63(3):751-65); Erratum at Mol. Pharmacol. 2005 July; 68(1): 260).
pKi: −log10 of the molar value.
Observable: pKi

Q) Need pKi, item O=C(OC1CC2(C1)CN(Cc1ccccc1)C2)N1C2COCC1CN(c1cnc(C(F)(F)F)cn1)C2
A) 6.00 to 7.00

====

Measurement Target: human M4 receptor (Homo sapiens, UniProt P08173)
Construct: expressed in transfected cells; host or cells: CHO cells
Experiment Description: Radioligand ([3H]N-methylscopolamine) binding assay, membranes from CHO cells expressing human M4 receptor
Condition Set: Ki against human M4 receptor; membranes from CHO cells; tritiated N-methylscopolamine 1.5 nM; read-out: K
Give measured Ki for each item. Keep answers brief.

Q) Need Ki, item C[C@@H]1CN(c2nc3cc(F)c(F)cc3s2)C[C@H](C)N1C(=O)OC1CC2(C1)CN(Cc1ccccc1)C2
A) < 10 nM

Q) Need Ki, item C[C@@H]1CN(c2nc3ccc(C(F)(F)F)cc3s2)C[C@H](C)N1C(=O)OC1CC2(C1)CN(Cc1ccncc1)C2
A) < 10 nM

Q) Need Ki, item [2H]c1c([2H])c([2H])c(C([2H])([2H])N2CC3(CC(OC(=O)N4[C@H](C)CN(c5ncc(C(F)(F)F)cn5)C[C@@H]4C)C3)C2)c([2H])c1[2H]
A) < 10 nM

Q) Need Ki, item C[C@@H]1CN(c2ncc3ccccc3n2)C[C@H](C)N1C(=O)OC1CC2(C1)CN(Cc1ccncc1)C2
A) 100 to 1000 nM

Q) Need Ki, item C[C@@H]1CN(c2nc3ccc(C(F)(F)F)cc3o2)C[C@H](C)N1C(=O)OC1CC2(C1)CN(Cc1ccccc1)C2
A) < 10 nM

Q) Need Ki, item C[C@@H]1CN(c2ncc(F)cn2)C[C@H](C)N1C(=O)NC1CC2(C1)CN(Cc1ccccc1)C2
A) 100 to 1000 nM

====

Measurement Target: human M4 receptor (Homo sapiens)
Construct: expressed in transfected cells; host or cells: CHO cells
Experiment Description: Radioligand ([3H]N-methylscopolamine) binding assay, membranes from CHO cells expressing human M4 receptor
Condition Set: Ki against human M4 receptor; membranes from CHO cells; tritiated N-methylscopolamine 1.5 nM; read-out: K
Observable: Ki

Q) For human M4 receptor (Homo sapiens), provide Ki of C[C@@H]1CN(c2nc3ccc(F)cc3o2)C[C@@H](C)N1C(=O)OC1CC2(C1)CN(Cc1ccccc1)C2 please.
A) 10 to 100 nM

Q) For human M4 receptor (Homo sapiens), provide Ki of C[C@@H]1CN(c2ncc(C(F)(F)F)cn2)C[C@H](C)N1C(=O)OC1CC2(C1)CN(CCC(C)(C)C)C2 please.
A) 100 to 1000 nM

Q) For human M4 receptor (Homo sapiens), provide Ki of CCOc1ccc(N2C[C@@H](C)N(C(=O)NC3CC4(C3)CN(Cc3ccccc3)C4)[C@@H](C)C2)cc1 please.
A) 100 to 1000 nM

Q) For human M4 receptor (Homo sapiens), provide Ki of COC(=O)c1cnc(N2C[C@@H](C)N(C(=O)OC3CC4(C3)CN(Cc3ccccc3)C4)[C@H](C)C2)nc1C(F)(F)F please.
A) < 10 nM

Q) For human M4 receptor (Homo sapiens), provide Ki of C[C@@H]1CN(c2ncc(C(F)(F)F)cn2)C[C@H](C)N1C(=O)NC1CC2(C1)CN(Cc1ccccc1O)C2 please.
A) 10 to 100 nM

Q) For human M4 receptor (Homo sapiens), provide Ki of C[C@@H]1CN(c2ncc(C#N)cn2)[C@@H](C)CN1C(=O)NC1CC2(C1)CN(Cc1ccccc1)C2 please.
A) 10 to 100 nM

Q) For human M4 receptor (Homo sapiens), provide Ki of C[C@@H]1CN(c2nc3ccc(C(F)(F)F)cc3o2)C[C@@H](C)N1C(=O)OC1CC2(C1)CN(Cc1ccccc1)C2 please.
A) 10 to 100 nM

Q) For human M4 receptor (Homo sapiens), provide Ki of C[C@@H]1CN(C(=O)NC2CC3(C2)CN(Cc2ccccc2)C3)[C@@H](C)CN1c1ncc(C(F)(F)F)cn1 please.
A) 10 to 100 nM

Q) For human M4 receptor (Homo sapiens), provide Ki of C[C@@H]1CN(c2nc3cc(F)c(F)cc3s2)[C@@H](C)CN1C(=O)OC1CC2(C1)CN(Cc1ccccc1)C2 please.
A) < 10 nM

Q) For human M4 receptor (Homo sapiens), provide Ki of C[C@@H]1CN(c2nc3ncc(C(F)(F)F)cc3s2)C[C@@H](C)N1C(=O)OC1CC2(C1)CN(Cc1ccccc1)C2 please.
A) 10 to 100 nM

Q) For human M4 receptor (Homo sapiens), provide Ki of C[C@@H]1CN(c2nc3ccc(F)cc3s2)[C@@H](C)CN1C(=O)OC1CC2(C1)CN(Cc1ccc(F)cc1)C2 please.
A) < 10 nM

Q) For human M4 receptor (Homo sapiens), provide Ki of C[C@@H]1CN(c2cnc(C(F)(F)F)cn2)C[C@@H](C)N1C(=O)NC1CC2(C1)CN(Cc1ccccc1)C2 please.
A) 100 to 1000 nM

Q) For human M4 receptor (Homo sapiens), provide Ki of C[C@@H]1CN(c2nc3ccc(C(F)(F)F)cc3s2)C[C@@H](C)N1C(=O)NC1CC2(C1)CN(Cc1ccccc1)C2 please.
A) < 10 nM

Q) For human M4 receptor (Homo sapiens), provide Ki of C[C@@H]1CN(c2ncc(C#N)cn2)CCN1C(=O)OC1CC2(C1)CN(Cc1ccc(Cl)cc1)C2 please.
A) 100 to 1000 nM
